Source: patent KR20130140557A

Below is a list of entries, each paired with its recorded OD 490 nm (a-myc) value.
# target.or.test.system: a-Myc
# protocol: mono phage ELISA, a-Myc coated 100 ng/well, anti-M13-HRP

- binder: "모노 파아지 클론 D2 (scFv on phage) (scFv) DVHSQVQLVESGAEVKKPGSSVKVSCKGSGDTFPNYAINWVRQAPGQGPEWMGRIIPMLGTSDYAEKFQGRVTITADKSTNTAYMGLNSLRSEDTAVYYCVKGPRYYGTDSYYLEKWGQGTMVTVSSDVHSQLVLTQPPSVSGAPGQTVTISCTGPTIGAGYDVHWYQQLPGAAPKLLIYGNLNRPSGVPDRFSGSKSGTSASLAITDLQAEDEADYYCHTYDSSLSGSWVFGGGTKLTVL"
  result: "0.303 OD490"
- binder: "모노 파아지 클론 A7 (scFv on phage) (scFv) DVHSQMQLVESGGGLVQPGTSLRLSCAASGFKFEDYAMHWVRQAPGKGLEWVSGVSWNSGTIAYVDSVKGRFTISRDNAKNSLYLQMNSLRAEDTAVYYCARDFTYFYESSGYYAFDLWGQGTMVTVSSDVHSQLVLTQPPSVSGAPGQRVTISCTGTNSNIGAGYDVHWYQQVPGTTPKLLIYGNTNRPSGVPDRFSGSKSGTSASLAITGLQAEDGGDYYCQSFDSSLTGSVFGTGTKVTVL"
  result: "0.0797 OD490"
- binder: "모노 파아지 클론 F2 (scFv on phage) (scFv) DVHSQVQLVESGAEVKKPGASVKVSCKASGYTFTNYYMHWVRQAPGQGLEWMGIINPSGGNTGYAQKFQGRVTMTRDMSTSTAYMELSSLRSEDTAVYYCARGLPWGENGLDVWGQGTTVTVSSDVHSQLVLTQPSSVSGAPGQTVTISCTGSSSNIGAGYDVHWYQQLPGTAPKVLIYGDSDRPSGVPDRFSGSKSATSASLAITGLQAEDEADYYCQSYDSSLSAYVFGTGTKVTVL"
  result: "0.287 OD490"

From here, focus on the item given below.
*Q* Answer with reported OD 490 nm (a-myc) of 모노 파아지 클론 B10 (scFv on phage) (scFv) DVHSQVQLVESGGGLVQPGGSLRLSCAASGFIFDDYAMFWVRQVPGKGLEWVAGINWNGNGIGYGDSVRGRFIISRDNARNSLDLQMNSLRAEDTAVYYCARPSLYGGNSEFDLWGQGTLVTVSSDVHSQLVLTQPPSVSGAPGQTVTISCTGPTIGAGYDVHWYQQLPGAAPKLLIYGNLNRPSGVPDRFSGSKSGTSASLAITDLQAEDEADYYCHTYDSSLSGSWVFGGGTKLTVL
*A* 0.113 OD490
